Test: protein stability index of a GFP-peptide fusion (GPS, HEK-293T) (PSI 1-6); higher = more stable;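 further: 24-mer peptide tiles fused after GFP, lentivirally expressed, FACS-sorted into six equal bins by GFP/DsRed ratio, decoded by Illumina sequencing, PSI is the read-weighted mean bin number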
Details: treatment: DMSO; c terminus: a fixed tail appended
Quantity kind: protein stability index
Lab note: jot down the number only; don't add units.

Q) Consider the sequence SLEHTLRVAIAHYQDDPDLRFLLD [TSPAN10] and give its recorded protein stability index.
A) 2.69

Q) Consider the sequence SPALQVMGPAQEAPVAEAWIPQAG [ZNF449] and give its recorded protein stability index.
A) 4.6

Q) Consider the sequence CRKAKEIRKERKRLKLMQQNPAGE [ATE1] and give its recorded protein stability index.
A) 4

Q) Consider the sequence HGLAFWFDVAFIGSIMTVWLSTAP [CARM1] and give its recorded protein stability index.
A) 2.78

Q) Consider the sequence SMIQEQFKKGKNPTGLLALQQIAD [ADD1] and give its recorded protein stability index.
A) 3.08

Q) Consider the sequence GTTVTFDDLMGILCKSVLEIERAI [FEM1C] and give its recorded protein stability index.
A) 2.31

Q) Consider the sequence MLYEKQKQQNVAHCMLVSNRVSWW [ZBED1] and give its recorded protein stability index.
A) 2.08

Q) Consider the sequence MCPLYDPNRQLWIELAPLSMPRIN [GAN] and give its recorded protein stability index.
A) 2.22

Q) Consider the sequence LILASELSRLSVNSVTAGDYSRPL [TSN] and give its recorded protein stability index.
A) 2.45

Q) Consider the sequence FVLGKGRGAAAAGGPQRIPAHRFV [BTBD1] and give its recorded protein stability index.
A) 2.3

Q) Consider the sequence LEFFYGIATATEIAYYSYIYSVVD [SLC19A2] and give its recorded protein stability index.
A) 3.5

Q) Consider the sequence MAMTAGTTTTFPMSNHTRERVTVA [STK38L] and give its recorded protein stability index.
A) 3.2

Q) Consider the sequence PATSPLVLAIPRRLRVELECEEGE [TRIM35] and give its recorded protein stability index.
A) 4.92

Q) Consider the sequence VRKVPPGYSIKVFDFERSGLQHAP [SMAD6] and give its recorded protein stability index.
A) 2.31

Q) Consider the sequence MADSGLREPQEDSQKDLENDPSVN [TOR1AIP2] and give its recorded protein stability index.
A) 5.65

Q) Consider the sequence WPFSMDCTGTEAHISSCKLGPQVS [LOXL2] and give its recorded protein stability index.
A) 3.02

Q) Consider the sequence GTLVQLLGSDDINVVTCAAGILSN [CTNNB1] and give its recorded protein stability index.
A) 2.32

Q) Consider the sequence THSPQKSHQCAHCEKTFNRKDHLK [PLAGL1] and give its recorded protein stability index.
A) 3.97
